Molecular target: UniProtKB P04585
Test: Fluorogenic assay for screening inhibitors of HIV protease
experimental-endpoint: log10 IC50 (log10 of the value in nM)
Recorded IC50 (log10, nM)

| compound | log10 IC50 |
| --- | --- |
| CC(C)(C)OC(=O)NN(Cc1ccc(-c2ccccc2)cc1)C[C@H](O)[C@H](Cc1ccccc1)NC(=O)OCc1ccccc1 [Example 58] | 1.26 |
| CC(C)(C)OC(=O)NN(Cc1ccccc1)C[C@H](O)[C@H](Cc1ccccc1)NC(=O)OCc1cncs1 [Example 7F] | 0.64 |
| COc1ccc(CN(C[C@H](O)[C@H](Cc2ccccc2)NC(=O)[C@@H](NC(=O)OCc2ccccn2)C(C)C)NC(=O)OCc2cccnc2)cc1 [Example 16] | -0.30 |

Problem: Can you share its log10 IC50? I mean this compound: CC(C)(C)OC(=O)NN(Cc1ccccc1)C[C@H](O)[C@H](Cc1ccccc1)NC(=O)OCc1ccccc1 [Example 1F]
Solution: 0.71

Problem: Value lookup for log10 IC50; key = CC(C)c1nc(COC(=O)N[C@H](C(=O)N[C@@H](Cc2ccccc2)[C@@H](O)CN(Cc2ccc(F)cc2)NC(=O)OC(C)(C)C)C(C)C)co1 [Example 51D]
Solution: -0.30

Problem: Quick one: log10 IC50 for CC(C)(C)OC(=O)NN(Cc1cccc(O)c1)C[C@H](O)[C@H](Cc1ccccc1)NC(=O)OCc1ccccc1 [Example 55C] ?
Solution: 0.87

Problem: Dear colleague, I am looking for the recorded log10 IC50 of the following compound: CCc1cccc(CN(C)C(=O)N[C@H](C(=O)NN(Cc2ccccc2)C[C@H](O)[C@H](Cc2ccccc2)NC(=O)OCc2ccccc2)C(C)C)n1 [Example 10]
Solution: -0.30

Problem: Endpoint output: log10 IC50 of CC(C)(C)OC(=O)NN(Cc1ccccc1)C[C@H](O)[C@H](Cc1ccccc1)NC(=O)OCc1cccnc1 [Example 4B] . Value?
Solution: 0.59

Problem: Recorded log10 IC50 of CC(C)[C@H](NC(=O)OCc1ccccn1)C(=O)N[C@@H](Cc1ccccc1)[C@@H](O)CN(Cc1ccccc1)NC(=O)OC(C)(C)C [Example 2E] , please.
Solution: -0.30

Problem: # input compound: CC(C)(C)OC(=O)NN(Cc1ccoc1)C[C@H](O)[C@H](Cc1ccccc1)NC(=O)OCc1cncs1 [Example 47] ; wanted: its log10 IC50
Solution: 0.32

Problem: What measured log10 IC50 goes with CC(C)(C)OC(=O)NN(Cc1ccc(OCCN2CCOCC2)cc1)C[C@H](O)[C@H](Cc1ccccc1)NC(=O)OCc1ccccc1 [Example 57C] ?
Solution: 1.00

Problem: Reported log10 IC50, compound CC(C)(C)OC(=O)NN(Cc1ccc(O)cc1)C[C@H](O)[C@H](Cc1ccccc1)NC(=O)OCc1ccccc1 [Example 52] : ____
Solution: 0.88

Problem: Given the compound COc1ccc(CN(C[C@H](O)[C@H](Cc2ccccc2)NC(=O)OCc2ccccc2)NC(=O)OC(C)(C)C)cc1 [Example 14B] , what is its reported log10 IC50?
Solution: 1.00

---

Biological target: HIV-1 protease (Human immunodeficiency virus type 1 group M subtype B)
Test: Fluorogenic assay for screening inhibitors of HIV protease
Conditions: read-out: Inhibitor Concentration (at 50 Percent Inhibition); concentration printed with 50 percent inhibition; pH 4.5, 30° C.
experimental-endpoint: IC50 (nM)
Reply numerically in nM, unit not repeated.

Problem: Give the measured IC50 of COc1cccc(CN(C[C@H](O)[C@H](Cc2ccccc2)NC(=O)OCc2ccccc2)NC(=O)OC(C)(C)C)c1 [Example 17B] .
Solution: 12

---

Assay: Cytotoxicity in MT4 cells
Assay type: cell-based
Settings: human, concentration at which 50% of the cells remain viable, read-out: LC50 (the source's name)
experimental-endpoint: CC50 (µM)
Write the number in µM without appending the unit.

| molecule | CC50 / µM |
| --- | --- |
| CCc1cccc(CN(C)C(=O)N[C@H](C(=O)NN(Cc2ccccc2)C[C@H](O)[C@H](Cc2ccccc2)NC(=O)OCc2ccccc2)C(C)C)n1 [Example 10] | 19 |
| COc1ccc(CN(C[C@H](O)[C@H](Cc2ccccc2)NC(=O)[C@@H](NC(=O)OCc2ccccn2)C(C)C)NC(=O)OCc2cccnc2)cc1 [Example 16] | 57 |

Please turn your attention to the following entry.
Problem: Please report the recorded CC50 for CC(C)c1nc(CN(C)C(=O)N[C@H](C(=O)NN(Cc2ccccc2)C[C@H](O)[C@H](Cc2ccccc2)NC(=O)OCc2ccccc2)C(C)C)co1 [Example 11] .
Solution: 18
